molecular target: Ribosomal protein S6 kinase alpha-2 (Homo sapiens) (UniProt Q15349); details: at 0.1 µM;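 note: reported value is the mean percent inhibition of RSK3, from the GSK PKIS screening panel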
Sequence (Q15349 whole entry): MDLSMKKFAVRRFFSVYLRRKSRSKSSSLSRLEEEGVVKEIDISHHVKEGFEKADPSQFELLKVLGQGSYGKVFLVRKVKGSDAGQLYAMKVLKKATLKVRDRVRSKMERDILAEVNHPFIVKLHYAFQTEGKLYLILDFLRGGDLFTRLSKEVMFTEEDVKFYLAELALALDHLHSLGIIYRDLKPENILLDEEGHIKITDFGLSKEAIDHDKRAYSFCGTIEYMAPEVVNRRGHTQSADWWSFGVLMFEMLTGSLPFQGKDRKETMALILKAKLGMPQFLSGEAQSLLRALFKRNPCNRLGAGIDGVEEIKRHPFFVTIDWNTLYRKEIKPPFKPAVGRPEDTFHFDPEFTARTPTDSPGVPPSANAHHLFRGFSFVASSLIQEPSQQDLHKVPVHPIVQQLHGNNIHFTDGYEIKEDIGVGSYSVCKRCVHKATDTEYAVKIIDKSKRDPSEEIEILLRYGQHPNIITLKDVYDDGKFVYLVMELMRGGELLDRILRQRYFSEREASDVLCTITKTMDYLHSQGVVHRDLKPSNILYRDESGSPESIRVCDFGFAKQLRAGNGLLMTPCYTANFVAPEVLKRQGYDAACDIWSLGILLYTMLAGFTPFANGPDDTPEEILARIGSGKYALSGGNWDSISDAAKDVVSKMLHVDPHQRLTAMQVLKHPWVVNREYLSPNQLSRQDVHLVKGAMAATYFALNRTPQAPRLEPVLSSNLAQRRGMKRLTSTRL
As shown below, each of these compounds has a reported inhibition value.

| COMPOUND | inhibition (%) |
| --- | --- |
| CC1=C(C(=O)Nc2ccc3[nH]ncc3c2)C(c2ccc(Cl)c(Cl)c2)CC(=O)N1 (configuration not stated) | 0.64 |
| COc1cc2c(cc1Nc1nc(N3CCc4ccccc43)c3cc[nH]c3n1)N(C(=O)CN(C)C)CC2 | 0.86 |
| NC(=O)c1cccc(Nc2nccc(Nc3cccc4[nH]ncc34)n2)c1 | -1.89 |
| CCCN1CCC(Oc2cc(Nc3nc(Nc4cccc(F)c4C(N)=O)c4cc[nH]c4n3)c(OC)cc2Cl)CC1 | -0.12 |
| O=C(Nc1n[nH]c2nc(-c3ccco3)c(Br)cc12)C1CC1 | 1.97 |
| O=C1NC(=O)C(c2ccccc2Cl)=C1Nc1cccc(O)c1 | 2.1 |
| COc1ccc(-c2nn3ncccc3c2-c2ccnc(Nc3ccc(Cl)c(C(F)(F)F)c3)n2)cc1 | 0.41 |

====

biological target: Macrophage-stimulating protein receptor (Homo sapiens) (UniProt Q04912); conditions: at 0.1 µM;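 note: reported values are the mean percent inhibition of RON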
Sequence (Q04912 25-304 limits assumed): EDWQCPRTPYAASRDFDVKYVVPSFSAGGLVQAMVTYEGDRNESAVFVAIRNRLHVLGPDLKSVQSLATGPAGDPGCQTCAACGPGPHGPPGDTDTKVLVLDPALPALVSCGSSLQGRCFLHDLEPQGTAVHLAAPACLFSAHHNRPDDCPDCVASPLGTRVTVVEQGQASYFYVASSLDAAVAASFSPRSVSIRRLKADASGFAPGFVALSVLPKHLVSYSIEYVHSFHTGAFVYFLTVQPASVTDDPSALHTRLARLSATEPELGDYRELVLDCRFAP
Sequence (Q04912 310-1400 limits assumed): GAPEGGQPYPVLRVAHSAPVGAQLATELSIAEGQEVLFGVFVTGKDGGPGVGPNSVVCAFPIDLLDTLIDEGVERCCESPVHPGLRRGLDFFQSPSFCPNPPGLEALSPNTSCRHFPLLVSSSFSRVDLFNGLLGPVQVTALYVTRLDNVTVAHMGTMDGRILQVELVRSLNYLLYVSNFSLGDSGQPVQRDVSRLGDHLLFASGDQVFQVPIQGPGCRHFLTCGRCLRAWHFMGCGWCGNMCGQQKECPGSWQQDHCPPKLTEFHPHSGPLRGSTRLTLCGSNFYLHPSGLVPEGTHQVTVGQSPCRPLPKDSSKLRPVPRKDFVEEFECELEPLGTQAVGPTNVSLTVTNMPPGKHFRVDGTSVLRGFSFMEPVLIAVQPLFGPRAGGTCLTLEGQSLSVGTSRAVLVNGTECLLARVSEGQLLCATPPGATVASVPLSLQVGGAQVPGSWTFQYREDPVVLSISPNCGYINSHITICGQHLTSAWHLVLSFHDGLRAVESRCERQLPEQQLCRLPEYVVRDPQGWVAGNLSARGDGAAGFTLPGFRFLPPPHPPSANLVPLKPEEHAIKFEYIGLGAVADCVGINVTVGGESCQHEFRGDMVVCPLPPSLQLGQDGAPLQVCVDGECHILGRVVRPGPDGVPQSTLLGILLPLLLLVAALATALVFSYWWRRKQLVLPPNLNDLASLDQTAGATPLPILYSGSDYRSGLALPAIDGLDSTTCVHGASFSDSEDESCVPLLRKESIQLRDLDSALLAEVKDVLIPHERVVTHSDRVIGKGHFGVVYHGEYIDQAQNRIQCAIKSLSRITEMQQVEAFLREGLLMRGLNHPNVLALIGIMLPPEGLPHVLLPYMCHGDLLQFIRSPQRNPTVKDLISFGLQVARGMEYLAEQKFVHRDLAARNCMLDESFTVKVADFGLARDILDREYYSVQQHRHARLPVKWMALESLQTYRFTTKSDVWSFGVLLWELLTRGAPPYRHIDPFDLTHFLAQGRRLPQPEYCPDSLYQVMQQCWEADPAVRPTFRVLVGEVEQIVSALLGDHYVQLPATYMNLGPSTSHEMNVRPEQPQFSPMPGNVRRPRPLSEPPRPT

| COMPOUND | inhibition [%] |
| --- | --- |
| COc1ccc2cc(-c3c(-c4ccncc4)nc(-c4ccc([S+](C)[O-])cc4)n3C)ccc2c1 (configuration not stated) | 4.56 |
| COc1cc2ncn(-c3cc(OCc4ccccc4C(F)(F)F)c(C(N)=O)s3)c2cc1OC | 4.5 |
| NCc1ccc(-c2nc(-c3ccc(Cl)c(O)c3)c(-c3ccncc3)[nH]2)cc1 | -0.28 |
| Nc1ncnc2occ(-c3ccc(NC(=O)Nc4cc(C(F)(F)F)cc(C(F)(F)F)c4)cc3)c12 | -3.85 |
| CC1=C(C(=O)Nc2ccc3[nH]ncc3c2)C(c2ccc(F)cc2)NC(=O)N1 (configuration not stated) | 4.69 |
| O=C1Nc2ccc(C(=O)c3ccco3)cc2C1=Cc1cc(Cl)c(O)c(Cl)c1 | 14.5 |
| CNC(=O)c1cncc(/C=C/c2c(Cl)cccc2Cl)c1 | 6.34 |
| CCN1CCC(CC(=O)Nc2n[nH]c3nc(-c4cccs4)c(Br)cc23)CC1 | 0.5 |
| Fc1cccc(COc2ccc(Nc3ncnc4sc(-c5cccs5)cc34)cc2Cl)c1 | -5.24 |
| NC(=O)c1cccc(Nc2nccc(Nc3cccc4[nH]ncc34)n2)c1 | 1.43 |
| Cc1ccc(NC(=O)c2ccnc(N3CCCC3)c2)cc1-c1ccc(C(=O)NCC2CC2)cc1 | 8.6 |
| CC1=C(C(=O)Nc2ccc3[nH]ncc3c2)C(c2ccc(Cl)c(Cl)c2)CC(=O)N1 (configuration not stated) | 3.91 |
| O=C1NC(=O)C(c2ccc(Cl)cc2)=C1Nc1ccc(Cl)c(C(=O)O)c1 | -4.02 |
| NC(=O)c1ccc(-c2nc(-c3ccccn3)c(-c3ccc4c(c3)OCO4)[nH]2)cc1 | -0.12 |
| CS(=O)(=O)CCNCc1ccc(-c2ccc3ncnc(Nc4ccc(OCc5ccccc5)c(Cl)c4)c3c2)o1 | 3.3 |
| Nc1ncnc2occ(-c3ccc(NC(=O)Nc4cccc(C(F)(F)F)c4)cc3)c12 | 2.56 |
| CCn1c(-c2nonc2N)nc2c(N3CCCC3)nccc21 | 1.7 |

====

Each entry below lists one item and its recorded inhibition value.
biological target: Tyrosine-protein kinase JAK2 (Homo sapiens) (UniProt O60674); settings: at 1 µM;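 note: mean JAK2 inhibition from the GSK PKIS screen, compounds tested at 1 µM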
Sequence (O60674 whole entry): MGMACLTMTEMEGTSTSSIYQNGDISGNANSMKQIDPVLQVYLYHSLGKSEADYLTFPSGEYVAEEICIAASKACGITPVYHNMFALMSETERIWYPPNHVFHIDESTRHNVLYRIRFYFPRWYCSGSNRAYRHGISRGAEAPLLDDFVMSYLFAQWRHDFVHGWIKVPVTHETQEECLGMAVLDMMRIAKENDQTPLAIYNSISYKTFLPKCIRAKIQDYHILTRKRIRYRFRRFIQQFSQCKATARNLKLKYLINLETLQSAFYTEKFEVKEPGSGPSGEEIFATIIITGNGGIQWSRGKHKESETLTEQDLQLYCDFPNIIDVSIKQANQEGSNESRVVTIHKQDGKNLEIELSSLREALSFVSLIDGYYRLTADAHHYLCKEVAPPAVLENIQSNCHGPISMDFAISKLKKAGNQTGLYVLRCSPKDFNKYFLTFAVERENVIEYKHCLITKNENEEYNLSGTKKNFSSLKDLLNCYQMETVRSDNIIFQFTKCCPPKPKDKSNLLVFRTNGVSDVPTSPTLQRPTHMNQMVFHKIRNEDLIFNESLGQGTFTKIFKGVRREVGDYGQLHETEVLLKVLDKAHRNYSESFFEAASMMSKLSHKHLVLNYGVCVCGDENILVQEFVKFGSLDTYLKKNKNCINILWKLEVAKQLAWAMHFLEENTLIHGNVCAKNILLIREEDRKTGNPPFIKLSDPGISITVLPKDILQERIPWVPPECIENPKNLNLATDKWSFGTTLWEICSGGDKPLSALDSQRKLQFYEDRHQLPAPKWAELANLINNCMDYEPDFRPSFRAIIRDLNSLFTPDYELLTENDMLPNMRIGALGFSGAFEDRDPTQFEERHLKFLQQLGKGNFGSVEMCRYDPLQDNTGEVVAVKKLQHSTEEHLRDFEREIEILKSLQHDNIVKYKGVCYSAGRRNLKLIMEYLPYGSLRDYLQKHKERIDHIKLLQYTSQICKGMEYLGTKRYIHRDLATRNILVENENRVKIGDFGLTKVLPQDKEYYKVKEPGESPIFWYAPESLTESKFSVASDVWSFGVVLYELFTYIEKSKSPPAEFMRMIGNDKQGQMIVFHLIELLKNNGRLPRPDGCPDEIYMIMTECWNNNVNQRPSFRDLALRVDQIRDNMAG

| MOLECULE | TARGET | inhibition / % |
| --- | --- | --- |
| CC1=C(C(=O)Nc2ccc3[nH]ncc3c2)C(c2ccc(F)cc2)NC(=O)N1 (stereo not drawn) | Tyrosine-protein kinase JAK2 (Homo sapiens) (UniProt O60674) | 35.1 |
| CNC(=O)c1cncc(/C=C/c2c(Cl)cccc2Cl)c1 | Tyrosine-protein kinase JAK2 (Homo sapiens) (UniProt O60674) | 2.6 |
| COc1ccc2cc(-c3c(-c4ccncc4)nc(-c4ccc([S+](C)[O-])cc4)n3C)ccc2c1 (stereo not drawn) | Tyrosine-protein kinase JAK2 (Homo sapiens) (UniProt O60674) | 2.23 |
| NCc1ccc(-c2nc(-c3ccc(Cl)c(O)c3)c(-c3ccncc3)[nH]2)cc1 | Tyrosine-protein kinase JAK2 (Homo sapiens) (UniProt O60674) | 0.75 |
| c1cnn2ncc(-c3ccnc(Nc4ccc5c(c4)OCCO5)n3)c2c1 | Tyrosine-protein kinase JAK2 (Homo sapiens) (UniProt O60674) | 20.6 |
| COc1ccc(-c2ccncc2)cc1C(N)=O | Tyrosine-protein kinase JAK2 (Homo sapiens) (UniProt O60674) | 3.4 |
| O=C1NC(=O)C(c2cccc(Cl)c2)=C1Nc1ccc(O)c(Cl)c1 | Tyrosine-protein kinase JAK2 (Homo sapiens) (UniProt O60674) | 2.24 |
| CCc1cccc(NC(=O)Nc2ccc(Oc3ccc4nc(NC(=O)OC)[nH]c4c3)cc2)c1 | Tyrosine-protein kinase JAK2 (Homo sapiens) (UniProt O60674) | 4.62 |

====

Entries and their inhibition values follow.
biological target: Tyrosine-protein kinase HCK (Homo sapiens) (UniProt P08631); conditions: at 1 µM;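 note: values are averaged percent inhibition of HCK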
Sequence (P08631 2-526 limits assumed): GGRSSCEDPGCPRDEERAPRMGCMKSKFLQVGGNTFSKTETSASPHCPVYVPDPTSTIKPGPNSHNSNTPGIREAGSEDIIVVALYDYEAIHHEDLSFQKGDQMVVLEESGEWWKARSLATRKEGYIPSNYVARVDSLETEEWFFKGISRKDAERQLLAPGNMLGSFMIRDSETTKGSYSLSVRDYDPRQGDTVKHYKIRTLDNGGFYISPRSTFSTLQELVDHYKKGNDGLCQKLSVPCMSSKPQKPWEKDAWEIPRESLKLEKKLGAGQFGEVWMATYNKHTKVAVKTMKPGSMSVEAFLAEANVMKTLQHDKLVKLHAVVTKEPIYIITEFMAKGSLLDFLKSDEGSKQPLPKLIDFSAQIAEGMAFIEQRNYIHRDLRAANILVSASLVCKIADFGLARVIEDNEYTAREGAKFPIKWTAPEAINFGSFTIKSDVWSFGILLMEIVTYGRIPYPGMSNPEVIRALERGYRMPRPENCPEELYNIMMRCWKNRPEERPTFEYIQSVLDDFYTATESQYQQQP
MEASURED_QUANTITY: inhibition

| SMI | TARGET | MEASURED_QUANTITY | VALUE |
| --- | --- | --- | --- |
| [O-][S+]1CCN(Cc2ccc(-c3ccc4ncnc(Nc5ccc(OCc6ccccc6)c(F)c5)c4c3)o2)CC1 | Tyrosine-protein kinase HCK (Homo sapiens) (UniProt P08631) | inhibition | 7.23% |
| Nc1nc(-c2ccc3c(c2)C(=Cc2cc(Br)c(O)c(Br)c2)C(=O)N3)cs1 | Tyrosine-protein kinase HCK (Homo sapiens) (UniProt P08631) | inhibition | 7.14% |
| CCn1c(-c2nonc2N)nc2c(N3CCCC3)nccc21 | Tyrosine-protein kinase HCK (Homo sapiens) (UniProt P08631) | inhibition | 2.43% |
| COc1ccc(-c2coc3ncnc(N)c23)cc1 | Tyrosine-protein kinase HCK (Homo sapiens) (UniProt P08631) | inhibition | 8.51% |

====

target: Ribosomal protein S6 kinase alpha-5 (Homo sapiens) (UniProt O75582); conditions: at 1 µM;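 note: mean inhibition of MSK1, from screening of the GSK PKIS inhibitor set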
Sequence (O75582 whole entry, looked up): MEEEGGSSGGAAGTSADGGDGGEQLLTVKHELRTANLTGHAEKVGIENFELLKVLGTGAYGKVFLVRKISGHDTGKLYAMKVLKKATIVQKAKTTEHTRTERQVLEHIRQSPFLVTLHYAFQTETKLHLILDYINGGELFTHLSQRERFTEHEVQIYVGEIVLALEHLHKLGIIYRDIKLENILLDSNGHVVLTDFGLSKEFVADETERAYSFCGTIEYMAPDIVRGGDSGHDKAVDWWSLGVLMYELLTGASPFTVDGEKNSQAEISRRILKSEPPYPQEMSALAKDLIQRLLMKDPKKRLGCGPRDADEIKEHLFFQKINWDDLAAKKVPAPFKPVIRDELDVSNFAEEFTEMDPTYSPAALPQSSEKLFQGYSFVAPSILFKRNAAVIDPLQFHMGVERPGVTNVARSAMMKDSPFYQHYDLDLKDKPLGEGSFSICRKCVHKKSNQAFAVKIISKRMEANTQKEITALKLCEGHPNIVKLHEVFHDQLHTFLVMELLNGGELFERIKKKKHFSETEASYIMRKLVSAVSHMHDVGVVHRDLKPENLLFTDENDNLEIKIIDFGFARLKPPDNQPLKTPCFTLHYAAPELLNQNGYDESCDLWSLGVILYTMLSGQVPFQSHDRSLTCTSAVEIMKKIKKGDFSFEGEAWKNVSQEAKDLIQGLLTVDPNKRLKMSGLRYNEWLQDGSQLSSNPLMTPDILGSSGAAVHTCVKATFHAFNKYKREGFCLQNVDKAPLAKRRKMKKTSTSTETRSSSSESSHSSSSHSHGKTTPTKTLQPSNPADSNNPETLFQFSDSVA
Each entry below lists one item and its recorded inhibition value.

| SMI | TARGET | inhibition [%] |
| --- | --- | --- |
| Nc1ncnc2occ(-c3ccc(NC(=O)Nc4cc(C(F)(F)F)cc(C(F)(F)F)c4)cc3)c12 | Ribosomal protein S6 kinase alpha-5 (Homo sapiens) (UniProt O75582) | 25.2 |
| CN1CCC(C(=O)Nc2n[nH]c3nnc(-c4ccccc4)cc23)CC1 | Ribosomal protein S6 kinase alpha-5 (Homo sapiens) (UniProt O75582) | -1.22 |
| Fc1cccc(COc2ccc(Nc3ncnc4sc(-c5cccs5)cc34)cc2Cl)c1 | Ribosomal protein S6 kinase alpha-5 (Homo sapiens) (UniProt O75582) | -7.37 |
| COc1ccccc1Nc1ncc(-c2ccccc2)o1 | Ribosomal protein S6 kinase alpha-5 (Homo sapiens) (UniProt O75582) | -5.77 |
| CCn1c(-c2nonc2N)nc2cncc(C(=O)N3CCNCC3)c21 | Ribosomal protein S6 kinase alpha-5 (Homo sapiens) (UniProt O75582) | 7.4 |
| [O-][S+]1CCN(Cc2ccc(-c3ccc4ncnc(Nc5ccc(OCc6ccccc6)c(F)c5)c4c3)o2)CC1 | Ribosomal protein S6 kinase alpha-5 (Homo sapiens) (UniProt O75582) | 1.41 |
| COc1ccc(COc2ccc(Cc3cnc(N)nc3N)cc2OC)cc1 | Ribosomal protein S6 kinase alpha-5 (Homo sapiens) (UniProt O75582) | 5.97 |
| CS(=O)(=O)CCNCc1ccc(-c2ccc3ncnc(Nc4ccc(OCc5cccc(F)c5)c(C(F)(F)F)c4)c3c2)o1 | Ribosomal protein S6 kinase alpha-5 (Homo sapiens) (UniProt O75582) | 8.53 |
| NC(=O)c1cccc(Nc2nccc(Nc3cccc4[nH]ncc34)n2)c1 | Ribosomal protein S6 kinase alpha-5 (Homo sapiens) (UniProt O75582) | 2.78 |
| Cc1nnc(-c2ccc(C)c(-c3ccc(C(=O)Nc4cccc(C#N)c4)cc3)c2)o1 | Ribosomal protein S6 kinase alpha-5 (Homo sapiens) (UniProt O75582) | 1.62 |
| COc1cc2c(cc1Nc1nc(N3CCc4ccccc43)c3cc[nH]c3n1)N(C(=O)CN(C)C)CC2 | Ribosomal protein S6 kinase alpha-5 (Homo sapiens) (UniProt O75582) | 4.71 |
| Cc1nn(C)c2cc(N(C)c3ccnc(Nc4cccc(S(N)(=O)=O)c4)n3)ccc12 | Ribosomal protein S6 kinase alpha-5 (Homo sapiens) (UniProt O75582) | 11.1 |
| CCn1c(-c2nonc2N)nc2cnc(Oc3cccc(NC(=O)c4ccc(OCCN5CCOCC5)cc4)c3)cc21 | Ribosomal protein S6 kinase alpha-5 (Homo sapiens) (UniProt O75582) | 78.1 |
| COc1cc(C=NNc2ncnc3c2cnn3-c2ccccc2)ccc1O | Ribosomal protein S6 kinase alpha-5 (Homo sapiens) (UniProt O75582) | -1.13 |
